Heads up, these compounds all have pKi values measured for Human immunodeficiency virus type 1 protease (Human immunodeficiency virus 1).
Formally, pKi is defined as -log10 of the concentration c, with c in mol/L.

Given `O=C1N(Cc2cccc(Br)c2)[C@H](Cc2ccccc2)[C@H](O)[C@@H](O)[C@@H](Cc2ccccc2)N1Cc1cccc(Br)c1` , state its recorded pKi.
8.85

Now consider `Cc1cccc(CN2C(=O)N(Cc3cccc(C)c3)[C@H](Cc3ccccc3)[C@H](O)[C@@H](O)[C@H]2Cc2ccccc2)c1` and answer again.
8.15

Now consider `O=C1N(Cc2ccc(F)cc2)[C@H](Cc2ccccc2)[C@H](O)[C@@H](O)[C@@H](Cc2ccccc2)N1Cc1ccc(F)cc1` and answer again.
8.85

Next:
Given `O=C1N(Cc2ccncc2)[C@H](Cc2ccccc2)[C@H](O)[C@@H](O)[C@@H](Cc2ccccc2)N1Cc1ccc2ccccc2c1` , state its recorded pKi.
8.16

---

# ASSAY_OVERVIEW: Bioavailability as maximal plasma concentration in rats
# Assay type: ADME, organism-based
# TEST_CONTEXT: rat
Listed here are compounds together with their documented log10(Cmax).
Parameter value (number): base-10 log of Cmax in nM.

Given `O=C1N(Cc2cccc(CO)c2)[C@H](Cc2ccccc2)[C@H](O)[C@@H](O)[C@@H](Cc2ccccc2)N1Cc1cccc(CO)c1` , state its recorded log10(Cmax).
2.92

Now consider `O=C1N(Cc2ccccc2)[C@H](Cc2ccccc2)[C@H](O)[C@@H](O)[C@@H](Cc2ccccc2)N1Cc1ccccc1` and answer again.
3.11

Now consider `O=C1N(Cc2cccc(O)c2)[C@H](Cc2ccccc2)[C@H](O)[C@@H](O)[C@@H](Cc2ccccc2)N1Cc1ccc2ccccc2c1` and answer again.
2.98

Now consider `O=C1N(Cc2ccc(F)cc2)[C@H](Cc2ccccc2)[C@H](O)[C@@H](O)[C@@H](Cc2ccccc2)N1Cc1ccc(F)cc1` and answer again.
3.20

Now consider `O=C1N(Cc2ccc(O)cc2)[C@H](Cc2ccccc2)[C@H](O)[C@@H](O)[C@@H](Cc2ccccc2)N1Cc1ccc(O)cc1` and answer again.
2.59

Now consider O=C1N(Cc2ccc(CO)cc2)[C@H](Cc2ccccc2)[C@H](O)[C@@H](O)[C@@H](Cc2ccccc2)N1Cc1ccc(CO)cc1 [DMP-323] and answer again.
2.89

Now consider `O=C1N(Cc2cccc(Cl)c2)[C@H](Cc2ccccc2)[C@H](O)[C@@H](O)[C@@H](Cc2ccccc2)N1Cc1cccc(Cl)c1` and answer again.
2.48

---

Listed here are molecules together with their documented Ki.
# TESTED_SYSTEM: Human immunodeficiency virus type 1 protease (Human immunodeficiency virus 1, UniProt Q72874)
Hi! Could you send only the number? It should be in nM, unit omitted.

Given `O=C1N(Cc2cccc(I)c2)[C@H](Cc2ccccc2)[C@H](O)[C@@H](O)[C@@H](Cc2ccccc2)N1Cc1cccc(I)c1` , state its recorded Ki.
0.42

Now consider `O=C1N(Cc2ccc(F)cc2)[C@H](Cc2ccccc2)[C@H](O)[C@@H](O)[C@@H](Cc2ccccc2)N1Cc1ccc2ccccc2c1` and answer again.
3.6

Now consider `O=C1N(Cc2ccccc2)[C@H](Cc2ccccc2)[C@H](O)[C@@H](O)[C@@H](Cc2ccccc2)N1Cc1ccccc1` and answer again.
3

Now consider `C=CCN1C(=O)N(CC=C)[C@H](Cc2ccccc2)[C@H](O)[C@@H](O)[C@H]1Cc1ccccc1` and answer again.
5.2

Now consider `COc1cccc(CN2C(=O)N(Cc3cccc(OC)c3)[C@H](Cc3ccccc3)[C@H](O)[C@@H](O)[C@H]2Cc2ccccc2)c1` and answer again.
1.6

More entries:
Given `O=C1N(CC2CCCC2)[C@H](Cc2ccccc2)[C@H](O)[C@@H](O)[C@@H](Cc2ccccc2)N1CC1CCCC1` , state its recorded Ki.
4.3

Now consider `O=C1N(Cc2ccccc2F)[C@H](Cc2ccccc2)[C@H](O)[C@@H](O)[C@@H](Cc2ccccc2)N1Cc1ccccc1F` and answer again.
34

Now consider `Nc1cccc(CN2C(=O)N(Cc3ccc4ccccc4c3)[C@H](Cc3ccccc3)[C@H](O)[C@@H](O)[C@H]2Cc2ccccc2)c1` and answer again.
1

Now consider `CCN1C(=O)N(CC)[C@H](Cc2ccccc2)[C@H](O)[C@@H](O)[C@H]1Cc1ccccc1` and answer again.
100

Now consider `CCCN1C(=O)N(Cc2ccc3ccccc3c2)[C@H](Cc2ccccc2)[C@H](O)[C@@H](O)[C@H]1Cc1ccccc1` and answer again.
1.1

Now consider `O=C1N(Cc2cccc(F)c2)[C@H](Cc2ccccc2)[C@H](O)[C@@H](O)[C@@H](Cc2ccccc2)N1Cc1cccc(F)c1` and answer again.
3

Now consider `O=C1N(CC2CCC2)[C@H](Cc2ccccc2)[C@H](O)[C@@H](O)[C@@H](Cc2ccccc2)N1CC1CCC1` and answer again.
1.3

Now consider `CCCCN1C(=O)N(Cc2ccc3ccccc3c2)[C@H](Cc2ccccc2)[C@H](O)[C@@H](O)[C@H]1Cc1ccccc1` and answer again.
0.6

Now consider `CC(C)CCCCN1C(=O)N(CCCCC(C)C)[C@H](Cc2ccccc2)[C@H](O)[C@@H](O)[C@H]1Cc1ccccc1` and answer again.
30

Now consider `O=C1N(Cc2ccc(CO)cc2)[C@H](Cc2ccccc2)[C@H](O)[C@@H](O)[C@@H](Cc2ccccc2)N1Cc1ccc(CO)cc1` and answer again.
1650
